MEASUREMENT_DESCRIPTION: Pharmacokinetics in C57BL/6 mice
Assay type: in vivo
ASSAY_CONDITIONS: male, C57BL/6, mouse, plasma, iv; i.v. 2 mg/kg
METRIC: Cmax (ng/mL)
Numbers only; they are read as ng/mL.

Cmax recorded for this compound, `CCS(=O)(=O)c1ccc(CC(=O)Nc2ccc(-c3ccc(CC(C)C)c(C#N)c3)c(C(F)(F)F)c2)cc1` , is 4800

====

MEASUREMENT_DESCRIPTION: Pharmacokinetics in C57BL/6 mice
Type: in vivo
ASSAY_CONDITIONS: male, C57BL/6, mouse, plasma, po, 5 mg/kg, i.g. 5 mg/kg, second MRTINF line (r9)
METRIC: MRT inf (h)
Numbers only; they are read as h.

MRT inf recorded for this compound, CCS(=O)(=O)c1ccc(CC(=O)Nc2ccc(-c3ccc(CC(C)C)c(C#N)c3)c(C(F)(F)F)c2)cc1 [8-074] , is 3.34

====

TESTED_TARGET: UniProtKB P51449
Sequence (P51449 269-508 limits assumed): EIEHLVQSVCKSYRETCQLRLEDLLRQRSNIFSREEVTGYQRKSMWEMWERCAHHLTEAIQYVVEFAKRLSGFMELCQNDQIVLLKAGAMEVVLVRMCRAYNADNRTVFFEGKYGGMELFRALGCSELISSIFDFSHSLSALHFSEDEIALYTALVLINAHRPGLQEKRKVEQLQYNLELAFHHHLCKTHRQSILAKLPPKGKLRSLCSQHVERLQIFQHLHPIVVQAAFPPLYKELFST
MEASUREMENT_DESCRIPTION: RORγt GAL4 cell-based reporter gene assay
ASSAY_CONDITIONS: HEK293T host cells; read-out: EC50, RORγt agonist activity in Gal4 reporter gene assay
pEC50: −log10 of the molar value. Where “and” joins values, the source holds several entries; their conditions need not be identical. Equal values may be shown once.
METRIC: pEC50

# SMILES_CODE, RECORDED_RESULT
measured = [
    ("CCS(=O)(=O)c1ccc(CC(=O)Nc2ccc(-c3ccc(CC(C)C)c(C#N)c3)c(C(F)(F)F)c2)cc1", "6.92 and 6.93"),
]

====

MEASUREMENT_DESCRIPTION: Pharmacokinetics in C57BL/6 mice
Assay type: in vivo
ASSAY_CONDITIONS: male, C57BL/6, mouse, plasma, po; i.g. 5 mg/kg
METRIC: AUC(0-t) (ng·h/mL)
Numbers only; they are read as ng·h/mL.

AUC(0-t) recorded for this molecule, `CCS(=O)(=O)c1ccc(CC(=O)Nc2ccc(-c3ccc(CC(C)C)c(C#N)c3)c(C(F)(F)F)c2)cc1` , is 19700

====

TESTED_TARGET: RORβ (Homo sapiens)
Sequence (Q92753 whole entry, the tested form may be a part): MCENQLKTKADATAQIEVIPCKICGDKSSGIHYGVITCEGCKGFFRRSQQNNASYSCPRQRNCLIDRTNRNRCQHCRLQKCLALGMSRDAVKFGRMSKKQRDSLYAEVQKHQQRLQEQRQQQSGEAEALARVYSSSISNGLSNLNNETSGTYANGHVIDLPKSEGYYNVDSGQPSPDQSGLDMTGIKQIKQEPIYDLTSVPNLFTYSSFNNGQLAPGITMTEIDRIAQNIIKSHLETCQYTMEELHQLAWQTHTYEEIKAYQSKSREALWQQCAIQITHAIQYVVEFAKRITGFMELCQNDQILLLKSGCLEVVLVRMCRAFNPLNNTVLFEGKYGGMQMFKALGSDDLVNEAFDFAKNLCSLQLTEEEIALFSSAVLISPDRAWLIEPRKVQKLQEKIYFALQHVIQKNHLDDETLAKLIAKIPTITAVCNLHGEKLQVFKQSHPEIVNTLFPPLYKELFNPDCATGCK
MEASUREMENT_DESCRIPTION: RORβ Gal4 reporter gene assay
Protocol: The hRORγt LBD coding sequence was inserted into a pBIND expression vector (Promega, E1581) to express the ROR-GAL4 binding domain chimeric receptors. […] EC50 of the sigmoidal fits were analyzed using Prism 5 and a four-parameter logistic fit equation, Y = bottom + (top–bottom) / (1 + 10(logEC50 − X) × hill slope). […] Supplementary file 13046_2022_2289_MOESM2_ESM.pdf: Additional file 2: Fig. S2. […] (h) The relative mRNA expression of Cd19 in B cells as determined by qPCR. […]
METRIC: EC50

Field EC50 (system: RORβ (Homo sapiens)) for entry `CCS(=O)(=O)c1ccc(CC(=O)Nc2ccc(-c3ccc(CC(C)C)c(C#N)c3)c(C(F)(F)F)c2)cc1` = > 10 µM

====

MEASUREMENT_DESCRIPTION: Pharmacokinetics in C57BL/6 mice
Type: in vivo
ASSAY_CONDITIONS: male, C57BL/6, mouse, plasma, oral; i.g. 5 mg/kg vs i.v. 2 mg/kg
METRIC: bioavailability (%)
Numbers only; they are read as %.

bioavailability recorded for this compound, `CCS(=O)(=O)c1ccc(CC(=O)Nc2ccc(-c3ccc(CC(C)C)c(C#N)c3)c(C(F)(F)F)c2)cc1` , is 38

====

MEASUREMENT_DESCRIPTION: Pharmacokinetics in C57BL/6 mice
Type: in vivo
ASSAY_CONDITIONS: male, C57BL/6, mouse, plasma; route not given
Procedure: Male C57BL/6 mice were divided into two groups: 8-074 single intravenous injection group (2 mg/kg, n = 3) and 8-074 single gavage group (5 mg/kg, n = 3). After administration, blood samples were collected at 0.25, 0.5, 1, 2, 5, 7, and 24 h. Then the plasma samples were separated and stored at − 80 °C until the analysis. […] The supernatant was mixed with a suitable volume of water and then analyzed using liquid chromatography in tandem with mass spectrometry (LC-MS/MS). […]
METRIC: AUC (ng·h/mL)
Numbers only; they are read as ng·h/mL.

AUC recorded for this compound, CCS(=O)(=O)c1ccc(CC(=O)Nc2ccc(-c3ccc(CC(C)C)c(C#N)c3)c(C(F)(F)F)c2)cc1 [8-074] , is 20600

====

MEASUREMENT_DESCRIPTION: Pharmacokinetics in C57BL/6 mice
Type: in vivo
ASSAY_CONDITIONS: male, C57BL/6, mouse, plasma, po; i.g. 5 mg/kg
METRIC: Cmax (ng/mL)
Numbers only; they are read as ng/mL.

Cmax recorded for this compound, `CCS(=O)(=O)c1ccc(CC(=O)Nc2ccc(-c3ccc(CC(C)C)c(C#N)c3)c(C(F)(F)F)c2)cc1` , is 3020

====

TESTED_TARGET: RORα (Homo sapiens, UniProt P35398)
Sequence (P35398 1-523): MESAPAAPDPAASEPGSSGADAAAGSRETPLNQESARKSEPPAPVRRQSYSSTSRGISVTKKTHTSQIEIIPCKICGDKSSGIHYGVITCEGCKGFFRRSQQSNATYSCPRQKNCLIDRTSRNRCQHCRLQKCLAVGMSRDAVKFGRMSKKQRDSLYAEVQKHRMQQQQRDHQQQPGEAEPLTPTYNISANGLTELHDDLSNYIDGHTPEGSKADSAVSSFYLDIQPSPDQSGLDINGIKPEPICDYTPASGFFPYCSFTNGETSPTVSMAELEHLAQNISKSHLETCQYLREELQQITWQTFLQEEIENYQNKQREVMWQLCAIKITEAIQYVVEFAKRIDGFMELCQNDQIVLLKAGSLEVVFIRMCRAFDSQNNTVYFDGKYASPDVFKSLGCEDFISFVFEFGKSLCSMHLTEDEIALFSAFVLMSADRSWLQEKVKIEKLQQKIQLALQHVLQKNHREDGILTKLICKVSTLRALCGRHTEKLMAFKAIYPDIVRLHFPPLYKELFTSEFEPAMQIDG
MEASUREMENT_DESCRIPTION: RORα Gal4 reporter gene assay
METRIC: EC50

Field EC50 (system: RORα (Homo sapiens, UniProt P35398)) for entry CCS(=O)(=O)c1ccc(CC(=O)Nc2ccc(-c3ccc(CC(C)C)c(C#N)c3)c(C(F)(F)F)c2)cc1 [8-074] = > 10 µM

====

MEASUREMENT_DESCRIPTION: Pharmacokinetics in C57BL/6 mice
Type: in vivo
ASSAY_CONDITIONS: male, C57BL/6, mouse, plasma, iv; i.v. 2 mg/kg
METRIC: AUC(0-inf)
Kindly write the number and append the unit.

AUC(0-inf) recorded for this molecule, `CCS(=O)(=O)c1ccc(CC(=O)Nc2ccc(-c3ccc(CC(C)C)c(C#N)c3)c(C(F)(F)F)c2)cc1` , is 20600 ng·h/mL

====

MEASUREMENT_DESCRIPTION: Pharmacokinetics in C57BL/6 mice
Format: in vivo
ASSAY_CONDITIONS: male, C57BL/6, mouse, plasma, po, 5 mg/kg, i.g. 5 mg/kg, first MRTINF line (r8)
METRIC: MRT inf (h)
Numbers only; they are read as h.

MRT inf recorded for this molecule, `CCS(=O)(=O)c1ccc(CC(=O)Nc2ccc(-c3ccc(CC(C)C)c(C#N)c3)c(C(F)(F)F)c2)cc1` , is 4.49

====

MEASUREMENT_DESCRIPTION: Pharmacokinetics in C57BL/6 mice
Assay type: in vivo
ASSAY_CONDITIONS: male, C57BL/6, mouse, plasma, iv, 2 mg/kg, i.v. 2 mg/kg, first MRTINF line (r8)
METRIC: MRT inf

MRT inf recorded for this molecule, CCS(=O)(=O)c1ccc(CC(=O)Nc2ccc(-c3ccc(CC(C)C)c(C#N)c3)c(C(F)(F)F)c2)cc1 [8-074] , is 3.84 h

Numbers sourced from paper PMC9034499.
